targetEntity: purified human topoisomerase I (Homo sapiens, UniProt P11387)
Sequence (P11387 1-765): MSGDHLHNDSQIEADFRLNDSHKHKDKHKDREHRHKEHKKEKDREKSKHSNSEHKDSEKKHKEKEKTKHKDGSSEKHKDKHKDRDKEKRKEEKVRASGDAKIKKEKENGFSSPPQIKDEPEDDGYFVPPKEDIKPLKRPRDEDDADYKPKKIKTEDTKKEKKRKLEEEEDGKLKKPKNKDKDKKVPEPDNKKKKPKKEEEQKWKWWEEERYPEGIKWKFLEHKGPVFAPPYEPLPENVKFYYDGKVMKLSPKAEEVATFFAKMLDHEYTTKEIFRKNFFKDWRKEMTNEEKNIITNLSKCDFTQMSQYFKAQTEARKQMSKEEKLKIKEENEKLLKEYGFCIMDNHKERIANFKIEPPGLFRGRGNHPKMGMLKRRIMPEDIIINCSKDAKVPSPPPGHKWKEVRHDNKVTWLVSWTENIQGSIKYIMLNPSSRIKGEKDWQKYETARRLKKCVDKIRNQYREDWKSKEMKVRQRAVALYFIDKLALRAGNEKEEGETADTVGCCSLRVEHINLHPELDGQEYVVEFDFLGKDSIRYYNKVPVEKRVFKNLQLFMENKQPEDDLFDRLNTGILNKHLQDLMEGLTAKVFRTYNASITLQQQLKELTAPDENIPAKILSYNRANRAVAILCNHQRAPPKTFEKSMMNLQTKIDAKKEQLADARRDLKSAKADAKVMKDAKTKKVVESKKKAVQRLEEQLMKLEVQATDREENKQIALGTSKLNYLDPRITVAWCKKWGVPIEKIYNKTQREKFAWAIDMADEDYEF
protocolNotes: Topoisomerase I mediated single strand break formation in DNA (in vitro)
conditionNotes: PM2 DNA, 30 minutes at 37° C; median effective concentration for single strand DNA break formation
Description: Samples dissolved in 100% DMSO as either […] or 10 mg/ml solutions, unless otherwise stated, were diluted in Tris-EDTA buffer. Marine bacteriophage PM2 DNA (Boehringer Mannheim) was also diluted in Tris-EDTA buffer to a concentration of 0.02 µg/µl. […] Negatives of photographs of the irradiated gels were scanned with a densitometer and areas under the peaks were calculated in order to obtain percent single strand DNA break formation for each sample. […]
Known EC50 of a selection of compounds
readout: EC50

compound="NC[C@H]1O[C@@H](n2c3cc(F)ccc3c3c4c(c5c6ccc(F)cc6[nH]c5c32)C(=O)N(N)C4=O)[C@H](O)[C@@H](O)[C@@H]1O [Example 18]" result="> 100000 nM"
compound="O=C1c2c(c3c4cc(F)ccc4n([C@@H]4O[C@H](CF)[C@@H](O)[C@H](O)[C@H]4O)c3c3sc4ccc(F)cc4c23)C(=O)N1O [Example 69]" result="30 nM"
compound="CS(=O)(=O)OC[C@H]1O[C@@H](n2c3ccc(F)cc3c3c4c(c5c6cc(F)ccc6[nH]c5c32)C(=O)NC4=O)[C@H](O)[C@@H](O)[C@@H]1O [Example 15]" result="30 nM"
compound="NC[C@H]1O[C@@H](n2c3ccc(F)cc3c3c4c(c5c6cc(F)ccc6[nH]c5c32)C(=O)NC4=O)[C@H](O)[C@@H](O)[C@@H]1O [Example 19]" result="40 nM"
compound="O=C1NC(=O)c2c1c1c3cc(F)ccc3[nH]c1c1c2c2cc(F)ccc2n1[C@@H]1O[C@H](CF)[C@@H](O)[C@H](O)[C@H]1O [Example 47]" result="100 nM"
compound="O=C1NC(=O)c2c1c1c3cc(F)ccc3[nH]c1c1c2c2cc(F)ccc2n1[C@@H]1O[C@H](CN2CCOCC2)[C@@H](O)[C@H](O)[C@H]1O [Example 29]" result="10 nM"
